Hi! I'm sharing some IC50 results obtained with OVCAR-3.

# MOLECULE, IC50
records = [
    ("CCc1cccc2c3c([nH]c12)C(CC)(CC(=O)O)OCC3 (centres unmarked) [Etodolac S]", "> 1000 µM"),
    ("CCc1cccc2c3c([nH]c12)C(CC)(CC(=O)O)OCC3 (centres unmarked) [Etodolac R/S]", "> 1000 µM"),
]

# credit: patent US20040152672A1
